Target: 3-hydroxyacyl-CoA dehydrogenase type-2 (Homo sapiens) (UniProt Q99714)
Assay: qHTS Assay for Inhibitors of HSD17B4, hydroxysteroid (17-beta) dehydrogenase 4
Details: recombinant HSD17B10, NADH fluorescence kinetic; series mostly up to 57.1 µM
Hit rate of the full screen: of about 75,000 compounds, about 5,700 (7.6%) were called active. Not shown: some 7% with an inconclusive outcome. What follows is part of a selection rich in actives, with near analogues and random picks from the rest.
measure: outcome

CC1CCCCC1NC(=O)CCS(=O)(=O)c1cccc2nonc12 (stereo not drawn)
inactive
CC(=O)N1[C@H](C)C=C[C@]1(Cc1ccccc1)C(=O)NCc1ccccn1
inactive
CCOC(=O)c1nc(N)sc1C(=O)OCC
inactive

---

Target: 3-hydroxyacyl-CoA dehydrogenase type-2 (Homo sapiens) (UniProt Q99714)
Assay: qHTS Assay for Inhibitors of HSD17B4, hydroxysteroid (17-beta) dehydrogenase 4
Conditions: recombinant HSD17B10, NADH fluorescence kinetic; series mostly up to 57.1 µM
Experimental: Assay Overview: NIH Molecular Libraries Screening Centers Network [MLSCN] NIH Chemical Genomics Center [NCGC] Structural Genomics Consortium [SGC] […] An increase in the fluorescence intensity due to conversion of NAD+ to NADH was used to measure the enzyme activity. Assay Protocol: Buffer: 100 mM Tris-HCl pH 9.0, containing 0.01 % Tween-20. […] The fluorescence intensity difference between the last and the first time points was used to compute reaction progress.
Screen size: about 75,000 compounds; about 5,700 (7.6%) were called active. About 7% were inconclusive and are not listed. Calls come from the whole dose curve; as a rule, active = well fitted inhibition curve with a large enough effect; inconclusive = small, poorly fitted or top-dose-only effect; inactive = no such curve, though single readings can be large or run the other way. For the sample, actives were picked, then their nearest neighbours and some compounds at random.
// one of active, inactive, no free text

Sample answers from the record:
Cc1ccc(C(=O)NCCNS(=O)(=O)c2ccccc2)cc1
inactive
Cn1nc(-c2ccc(Cl)cc2)c2cc(C(=O)NCc3ccco3)sc21
active
CCn1c(NCCc2ccc(OC)c(OC)c2)nc2c1c(=O)n(C)c(=O)n2C
inactive
O=C(O)c1ccc(-n2cccc2)cc1O
active
CCCCNc1nc2c(c(=O)[nH]c(=O)n2C)n1CCOc1ccccc1
inactive
O=C(CSc1nnc(-c2ccco2)n1-c1ccccc1)NCCc1ccccc1
inactive
Cn1c(=O)c2c(nc(NCCc3ccccc3)n2Cc2ccccc2)n(C)c1=O
active

In the following, a different compound is considered.
Inquiry: Recorded call for CC(C)=CCC/C(C)=C/CC/C(C)=C/CC/C(C)=C/CO ?
Reply text: inactive

---

Molecular target: 3-hydroxyacyl-CoA dehydrogenase type-2 (Homo sapiens) (UniProt Q99714)
Assay: qHTS Assay for Inhibitors of HSD17B4, hydroxysteroid (17-beta) dehydrogenase 4;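 note: the protocol describes HADH2 (HSD17B10) and not the HSD17B4 of the title; nearly all actives have a fitted effect of over 70% in size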
Conditions: recombinant HSD17B10, NADH fluorescence kinetic; series mostly up to 57.1 µM
The campaign covered roughly 75,000 compounds. About 5,700 (7.6%) were called active. About 7% were inconclusive and are not listed. Calls follow the shape of the dose curve; as a rule, active = well fitted inhibition curve with a large enough effect; inconclusive = small, poorly fitted or top-dose-only effect; inactive = no such curve, though single readings can be large or run the other way. Shown is part of a subset that was picked to be rich in actives.
Write down the outcome that applies. Available outcomes: active, inactive

Solved cases below.
Cc1ccc(-n2nc(-c3ccco3)cc2C(=O)NCc2cccnc2)cc1
inactive
CN(c1ccc(C(=O)NCCC2=CCCCC2)cc1)S(C)(=O)=O
inactive
COc1ccc(C(=O)N2CCC(C(=O)Nc3cccc(C)c3)CC2)cc1OC
inactive
CCCCN(C)C(=O)C1CCN(Cc2ccccn2)CC1
inactive

Inquiry: I'd appreciate the recorded outcome for Cn1cccc1C(=O)Nc1nccs1 from this test.
Reply text: inactive

---

Molecular target: 3-hydroxyacyl-CoA dehydrogenase type-2 (Homo sapiens)
Assay: qHTS Assay for Inhibitors of HSD17B4, hydroxysteroid (17-beta) dehydrogenase 4; note: potency is the fitted concentration of half-maximal effect;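 note: the protocol describes HADH2 (HSD17B10) and not the HSD17B4 of the title; nearly all actives have a fitted effect of over 70% in size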
Conditions: recombinant HSD17B10, NADH fluorescence kinetic; series mostly up to 57.1 µM
In all, about 75,000 compounds went through this assay and about 5,700 (7.6%) were called active. Not shown: some 7% with an inconclusive outcome. This is one part of a sample in which actives are shown more often than they occur.
measure: Potency

Recorded results for 4 compounds are shown here.
COc1ccc2[nH]c3c(=O)n(Cc4ccco4)cnc3c2c1
3.16 µM (active)
c1ccc(-c2cc(-c3nnc4sc(-c5ccccn5)nn34)[nH]n2)cc1
31.6 µM (active)
O=C(COC(=O)c1ccccc1C(=O)c1ccccc1)c1ccco1
inactive
CCCCNC(=O)c1c[nH]c2ccc(S(=O)(=O)Nc3ccc(OCC)cc3)cc2c1=O
inactive

Now take the following compound into account.
Inquiry: Entry CCOC(=O)N1CCN(C(=O)C2CC(c3ccc(F)cc3)=NO2)CC1 (stereo not given) has what Potency?
Reply text: inactive

---

Molecular target: 3-hydroxyacyl-CoA dehydrogenase type-2 (Homo sapiens)
Test: qHTS Assay for Inhibitors of HSD17B4, hydroxysteroid (17-beta) dehydrogenase 4; note: potency is the fitted concentration of half-maximal effect;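 note: the protocol describes HADH2 (HSD17B10) and not the HSD17B4 of the title; nearly all actives have a fitted effect of over 70% in size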
Conditions: recombinant HSD17B10, NADH fluorescence kinetic; series mostly up to 57.1 µM
Procedure: Assay Overview: NIH Molecular Libraries Screening Centers Network [MLSCN] NIH Chemical Genomics Center [NCGC] Structural Genomics Consortium [SGC] […] An increase in the fluorescence intensity due to conversion of NAD+ to NADH was used to measure the enzyme activity. Assay Protocol: Buffer: 100 mM Tris-HCl pH 9.0, containing 0.01 % Tween-20. […] The fluorescence intensity difference between the last and the first time points was used to compute reaction progress.
The whole screen tested about 75,000 compounds, of which about 5,700 (7.6%) were called active. About 7% were inconclusive and are not listed. Shown is part of a subset that was picked to be rich in actives.
measure: Potency

Reference set (5 entries):
COc1ccc(Oc2ncc3nc(-c4ccc(F)cc4)c(=O)n(C)c3n2)cc1
31.6 µM (active)
C=C(C)C1CC=C(C)C(O)C1 (stereo unspecified)
inactive
O=c1c(-c2cccs2)nc2cnc(Oc3ccccc3)nc2n1-c1ccccc1
25.1 µM (active)
CN(C(=O)COc1nnc(-c2cccs2)c(-c2cccs2)n1)c1ccccc1
inactive
COc1ccc(C(=O)n2nc(-c3ccc(Cl)cc3)nc2N)cc1OC
inactive

I would be grateful if you could provide Potency for each of the following entries.
1. Cn1cc(-c2nc3cncnc3n(-c3ccccc3)c2=O)c2ccccc21
2. COc1cccc(-c2cc(NCCc3c[nH]c4ccc(OC)cc34)ncn2)c1

Reply text:
["inactive", "inactive"]

// each compound listed below needs its Potency
1. O=C(c1cccc(S(=O)(=O)N2CCOCC2)c1)N1CCOCC1
2. COc1ccc(-n2c(C)nc3c(cnn3-c3ccccc3)c2=O)cc1
3. COc1cc(OC)c(C(=O)NC2CCCCCC2)cc1OC
4. COCCCN(C(=O)Cn1ncc2c(=O)oc3ccc(C)cc3c21)C(C)c1ccncc1 (stereo unspecified)

Reply text:
1: inactive; 2: inactive; 3: inactive; 4: inactive

---

Molecular target: 3-hydroxyacyl-CoA dehydrogenase type-2 (Homo sapiens)
Experiment: qHTS Assay for Inhibitors of HSD17B4, hydroxysteroid (17-beta) dehydrogenase 4;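 note: the protocol describes HADH2 (HSD17B10) and not the HSD17B4 of the title; nearly all actives have a fitted effect of over 70% in size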
Conditions: recombinant HSD17B10, NADH fluorescence kinetic; series mostly up to 57.1 µM
About 5,700 (7.6%) of roughly 75,000 compounds were called active. Inconclusive results (about 7%) are left out. Calls follow the shape of the dose curve; as a rule, active = well fitted inhibition curve with a large enough effect; inconclusive = small, poorly fitted or top-dose-only effect; inactive = no such curve, though single readings can be large or run the other way. The full list was thinned out, with actives kept by preference.
Output constraint: value belongs to label 1 = active, label 0 = inactive

CCN(Cc1nc2ccccc2c(=O)[nH]1)Cc1cc(=O)oc2cc(C)c(C)cc12
label 0

Inquiry: What is the recorded call for this molecule in the test? CC(C)C1N=C2c3ccccc3N=C(SCC(=O)c3ccc(O)c(O)c3)N2C1=O (stereo not drawn)
Reply text: label 0

Inquiry: Same thing, different molecule: COCCn1c(=O)c(-c2ccc(OC)cc2)nc2cnc(Oc3cccc(Cl)c3)nc21
Reply text: label 0

Inquiry: Same for O=c1c(-c2ccc(F)c(F)c2)nc2cncnc2n1-c1ccccc1
Reply text: label 0

Inquiry: Entry Cc1ccc(F)cc1NC(=O)c1cccc(N(C)C)c1 please
Reply text: label 0

Inquiry: Request: CCn1c(COc2ccccc2)nnc1SCC(=O)Nc1ccc2c(c1)OCCO2
Reply text: label 0

Inquiry: Ok, now COc1ccccc1OCCOc1ccc(/C=N/n2cnnc2)cc1
Reply text: label 0

Inquiry: Another molecule to look at: N#CC1=C(N)Oc2cc(O)ccc2C1C1CCCCC1 (stereo not drawn)
Reply text: label 0

Inquiry: Now try CCn1cc(C(=O)NC2CCCCCC2)c(=O)c2cc(S(=O)(=O)N3CCCCC3)ccc21 .
Reply text: label 0

Inquiry: Same lookup for Cc1ccc(NC(=O)c2cccc(N(C)C)c2)cc1NC(=O)c1ccc(O)cc1 , please.
Reply text: label 1

Inquiry: Moving on to CC1O[C@@H](Oc2c(-c3ccc(O)c(O)c3)oc3cc(O)cc(O)c3c2=O)C(O)C(O)C1O (stereo partly drawn)
Reply text: label 0

Inquiry: Now try CN1CCN(c2ncc3nc(-c4ccc(Cl)cc4)c(=O)n(-c4ccccc4)c3n2)CC1 .
Reply text: label 1

Inquiry: Try FC(F)(F)c1nnc2sc(-c3ccco3)nn12 next.
Reply text: label 0

Inquiry: Another molecule: COC(=O)C(C)Sc1ccc2nnc(-c3cccc(F)c3)n2n1 (stereo not drawn)
Reply text: label 1

Inquiry: Field entry: COc1ccc(C(=O)Nc2nncs2)c(OC)c1
Reply text: label 0

Data credit: PubChem BioAssay AID893
